Reported IC50 for target or system human PKCθ full length enzyme (Homo sapiens, UniProt Q04759), by entry.
result type: IC50 (nM)

**Q:** What reported IC50 corresponds to Cc1c(Nc2c(C#N)cnc3sc(-c4cccc(O)c4)cc23)ccc2[nH]ccc12 on human PKCθ full length enzyme (Homo sapiens, UniProt Q04759)?
**A:** 11

**Q:** What reported IC50 corresponds to Cc1c(Nc2c(C#N)cnc3sc(-c4ccc(NS(C)(=O)=O)cc4)cc23)ccc2[nH]ccc12 on human PKCθ full length enzyme (Homo sapiens, UniProt Q04759)?
**A:** 43

**Q:** What reported IC50 corresponds to CN1CCN(Cc2ccc(-c3cc4c(Nc5cccc6[nH]ccc56)c(C#N)cnc4s3)cc2)CC1 on human PKCθ full length enzyme (Homo sapiens, UniProt Q04759)?
**A:** 52

**Q:** What reported IC50 corresponds to CN1CCN(CC/C=C/c2cc3c(Nc4ccc5[nH]ccc5c4)c(C#N)cnc3s2)CC1 on human PKCθ full length enzyme (Homo sapiens, UniProt Q04759)?
**A:** 447

**Q:** What reported IC50 corresponds to Cc1ccc(CN(C)C)cc1-c1cc2c(Nc3ccc4[nH]ccc4c3C)c(C#N)cnc2s1 on human PKCθ full length enzyme (Homo sapiens, UniProt Q04759)?
**A:** 100

**Q:** What reported IC50 corresponds to Cc1c(Nc2c(C#N)cnc3sc(-c4cnccn4)cc23)ccc2[nH]ccc12 on human PKCθ full length enzyme (Homo sapiens, UniProt Q04759)?
**A:** 21

**Q:** What reported IC50 corresponds to N#Cc1cnc2sc(C#Cc3cccnc3)cc2c1Nc1ccc2[nH]ccc2c1 on human PKCθ full length enzyme (Homo sapiens, UniProt Q04759)?
**A:** 190

**Q:** What reported IC50 corresponds to Cc1c(Nc2c(C#N)cnc3sc(-c4cncc(CN(C)C)c4)cc23)ccc2[nH]ccc12 on human PKCθ full length enzyme (Homo sapiens, UniProt Q04759)?
**A:** 83

**Q:** What reported IC50 corresponds to N#Cc1cnc2sc(-c3cccc(CN4CC[C@H](O)C4)c3)cc2c1Nc1ccc2[nH]ccc2c1 on human PKCθ full length enzyme (Homo sapiens, UniProt Q04759)?
**A:** 110

**Q:** What reported IC50 corresponds to CN1CCN(C(=O)c2cc3c(Nc4ccc5[nH]ccc5c4)c(C#N)cnc3s2)CC1 on human PKCθ full length enzyme (Homo sapiens, UniProt Q04759)?
**A:** 2280

A. N#Cc1cnc2sc(-c3cccc(CNCCCN4CCOCC4)c3)cc2c1Nc1ccc2[nH]ccc2c1
B. Cc1c(Nc2c(C#N)cnc3sc(-c4ccc5[nH]ccc5c4)cc23)ccc2[nH]ccc12
C. Cc1c(Nc2c(C#N)cnc3sc(/C=C/C(=O)N4CCCC4)c(C)c23)ccc2[nH]ccc12
D. Cc1c(Nc2c(C#N)cnc3sc(C(=O)N4CCN(C)CC4)cc23)ccc2[nH]ccc12
**Q:** Rank descending by IC50. Provide the ranking by listing each label in its place in the requested order.
**A:** D, A, B, C

I. Cc1c(Nc2c(C#N)cnc3scc(CO)c23)ccc2[nH]ccc12
II. COc1ccc(C=O)cc1-c1cc2c(Nc3ccc4[nH]ccc4c3C)c(C#N)cnc2s1
**Q:** Endpoint returns the identifier whose IC50 is numerically larger, either I or II . # answer = label of selected item
**A:** I
(I: 63 nM, II: 14 nM)

a. N#Cc1cnc2sc(-c3cccc(CN4CCCC(CO)C4)c3)cc2c1Nc1ccc2[nH]ccc2c1 (centres unmarked)
b. CN(C)Cc1ccc2sc(-c3cc4c(Nc5ccc6[nH]ccc6c5)c(C#N)cnc4s3)cc2c1
c. N#Cc1cnc2sc(Cl)cc2c1Nc1ccc2[nH]ccc2c1
d. CNS(=O)(=O)c1ccc(-c2cc3c(Nc4ccc5[nH]ccc5c4C)c(C#N)cnc3s2)cc1
e. N#Cc1cnc2sc(-c3ccccc3)cc2c1Oc1ccc2[nH]ccc2c1
**Q:** Order by IC50, ascending. Provide the ranking by listing each label in its place in the requested order.
**A:** d, b, a, c, e
(d: 9 nM, b: 49 nM, a: 130 nM, c: 395 nM, e: 9300 nM)

* * *

# target desc: human PKCθ full length enzyme (Homo sapiens, UniProt Q04759)
# Sequence (Q04759 whole entry): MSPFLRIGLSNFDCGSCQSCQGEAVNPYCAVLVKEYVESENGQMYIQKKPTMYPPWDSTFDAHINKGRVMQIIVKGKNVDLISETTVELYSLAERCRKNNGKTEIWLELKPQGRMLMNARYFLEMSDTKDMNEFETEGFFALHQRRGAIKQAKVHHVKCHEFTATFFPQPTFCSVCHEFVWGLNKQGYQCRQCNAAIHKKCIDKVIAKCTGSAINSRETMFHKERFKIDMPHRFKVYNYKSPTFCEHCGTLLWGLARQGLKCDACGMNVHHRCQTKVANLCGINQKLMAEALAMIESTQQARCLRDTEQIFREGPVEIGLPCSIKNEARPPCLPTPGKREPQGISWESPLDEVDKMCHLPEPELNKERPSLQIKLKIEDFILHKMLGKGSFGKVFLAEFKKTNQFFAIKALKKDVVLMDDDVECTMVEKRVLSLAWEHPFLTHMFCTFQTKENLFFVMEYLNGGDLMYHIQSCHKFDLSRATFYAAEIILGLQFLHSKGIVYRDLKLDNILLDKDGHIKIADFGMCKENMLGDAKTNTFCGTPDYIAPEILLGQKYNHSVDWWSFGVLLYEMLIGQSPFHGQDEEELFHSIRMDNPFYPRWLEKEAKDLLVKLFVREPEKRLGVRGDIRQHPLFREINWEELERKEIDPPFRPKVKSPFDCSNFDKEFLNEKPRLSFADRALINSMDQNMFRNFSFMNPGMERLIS
result type: IC50 (nM)

// worked examples, IC50 included
**Q:** Recorded IC50 for N#Cc1cnc2sc(-c3cccc(CN4CCN(Cc5ccncc5)CC4)c3)cc2c1Nc1ccc2[nH]ccc2c1 , please?
**A:** 840

**Q:** Recorded IC50 for Cc1c(Nc2c(C#N)cnc3sc(-c4cc(F)cc(C(=O)N(C)C)c4)cc23)ccc2[nH]ccc12 , please?
**A:** 38

**Q:** Recorded IC50 for Cc1c(Nc2c(C#N)cnc3sc(-c4ccc(OC[C@H](C)O)cc4)cc23)ccc2[nH]ccc12 , please?
**A:** 200

P. Cc1c(Nc2c(C#N)cnc3sc(C(=O)O)cc23)ccc2[nH]ccc12
Q. N#Cc1cnc2sc(C#Cc3cccnc3)cc2c1Nc1cccc2[nH]ccc12
R. C=Cc1cc2c(Nc3ccc4[nH]ccc4c3C)c(C#N)cnc2s1
**Q:** Rank descending by IC50. Provide the ranking by listing each label in its place in the requested order.
**A:** P, Q, R

* * *

result type: melting point

// worked examples, melting point included
**Q:** Recorded melting point for N#Cc1cnc2sc(-c3ccccc3C=O)cc2c1Nc1ccc2[nH]ccc2c1 , please?
**A:** 222 to 224 °C

**Q:** Recorded melting point for N#Cc1cnc2sc(CN3CCCC3)cc2c1Nc1ccc2[nH]ccc2c1 , please?
**A:** 212 to 215 °C

**Q:** Recorded melting point for CN1CCN(Cc2ccc(-c3cc4c(Nc5cccc6[nH]ccc56)c(C#N)cnc4s3)cc2)CC1 , please?
**A:** > 245 °C

New cases:
**Q:** Recorded melting point for CN1CCN(CC/C=C/c2cc3c(Nc4ccc5[nH]ccc5c4)c(C#N)cnc3s2)CC1 , please?
**A:** 220 °C

**Q:** Recorded melting point for CN(C)Cc1cccc(-c2cc3c(Nc4ccc5[nH]ccc5c4)c(C#N)cnc3s2)n1 , please?
**A:** 198 to 200 °C

**Q:** Recorded melting point for Cc1c(Nc2c(C#N)cnc3sc(-c4ccc(OCCN(C)C)cc4)cc23)ccc2[nH]ccc12 , please?
**A:** 182 to 184 °C

**Q:** Recorded melting point for N#Cc1cnc2sc(-c3ccccc3)cc2c1Nc1ccc2[nH]ccc2c1 , please?
**A:** > 245 °C

**Q:** Recorded melting point for Cl.N#Cc1cnc2sc(I)cc2c1Nc1cccc2[nH]ccc12 , please?
**A:** > 245 °C

* * *

# target desc: human PKCθ full length enzyme (Homo sapiens, UniProt Q04759)
pIC50: −log10 of the molar value.
result type: pIC50

**Q:** Recorded pIC50 for Cc1c(Nc2c(C#N)cnc3sc(/C=C/C(=O)N4CCN(C)CC4)cc23)ccc2[nH]ccc12 , please?
**A:** 7.37

I. Cc1c(Nc2c(C#N)cnc3sc(-c4ccnn4C)cc23)ccc2[nH]ccc12
II. Cc1c(Nc2c(C#N)cnc3scc(C(C)C)c23)ccc2[nH]ccc12
III. Cc1c(Nc2c(C#N)cnc3sc(C#Cc4cncc(CN(C)C)c4)cc23)ccc2[nH]ccc12
**Q:** Order by pIC50, ascending. Provide the ranking by listing each label in its place in the requested order.
**A:** I, III, II

* * *

Reported IC50 for target or system human PKCθ full length enzyme (Homo sapiens, UniProt Q04759), by entry.
result type: IC50 (nM)

// worked examples, IC50 included
**Q:** Recorded IC50 for Cc1c(Nc2c(C#N)cnc3sc(C(=O)N(C)C)cc23)ccc2[nH]ccc12 , please?
**A:** 222

**Q:** Recorded IC50 for N#Cc1cnc2sc(-c3cccc(CN4CCN(CCOCCO)CC4)c3)cc2c1Nc1ccc2[nH]ccc2c1 , please?
**A:** 180

I. Cc1c(Nc2c(C#N)cnc3sccc23)ccc2[nH]ccc12
II. Cc1c(Nc2c(C#N)cnc3sc(C(=O)Nc4ccncc4)cc23)ccc2[nH]ccc12
III. N#Cc1cnc2sc(-c3ccccc3CN3CCC(O)CC3)cc2c1Nc1ccc2[nH]ccc2c1
IV. Cc1c(Nc2c(C#N)cnc3sc(-c4cccc(S(=O)(=O)NCCO)c4)cc23)ccc2[nH]ccc12
V. CCN(CC)C(=O)/C=C/c1cc2c(Nc3ccc4[nH]ccc4c3C)c(C#N)cnc2s1
**Q:** Rank descending by IC50. Provide the ranking by listing each label in its place in the requested order.
**A:** III, I, II, IV, V

* * *

result type: melting point (°C)

**Q:** Recorded melting point for Cc1c(Nc2c(C#N)cnc3sccc23)ccc2[nH]ccc12 , please?
**A:** 255

**Q:** Recorded melting point for CCCCc1cc2c(Nc3ccc4[nH]ccc4c3)c(C#N)cnc2s1 , please?
**A:** 210
